- measurement_protocol: Refractive index and Abbe number (Abbe refractometer, NMP solutions extrapolated to 100% by weight)
- Assay type: physicochemical
- conditions_used: (meth)acrylate compound; 589 nm, 20° C.; 5, 10, 15 wt % NMP solutions (Comparative Examples 4 and 5: 1, 3, 5 wt %) extrapolated to 100% by weight
reported_endpoint: Refractive index
// no unit string in output, number only

Example entries begin here.
molecule: C=CC(=O)Oc1ccc2ccccc2c1-c1c(OC(=O)C=C)ccc2ccccc12 [Reference Example 2]
numeric_readout: 1.632
//
molecule: C=CC(=O)Oc1ccc(C2(c3ccc(OC(=O)C=C)c(C)c3)c3ccccc3-c3ccccc32)cc1C [Comparative Example 4]
numeric_readout: 1.606

Query string: # return recorded Refractive index for input C=CC(=O)OCCOc1ccc(C2(c3ccc(OCCOC(=O)C=C)c(C)c3)c3ccccc3-c3ccccc32)cc1C [Comparative Example 6]
Result string: 1.591

Query string: Look up and report measured Refractive index for this entry: C=CC(=O)Oc1ccc(C2(c3ccc(OC(=O)C=C)c(-c4ccccc4)c3)c3ccccc3-c3ccccc32)cc1-c1ccccc1 [Comparative Example 5]
Result string: 1.644

Query string: Return the recorded Refractive index value; entry: C=CC(=O)Oc1c(Cc2ccccc2)cc(C2(c3cc(Cc4ccccc4)c(OC(=O)C=C)c(-c4ccccc4)c3)c3ccccc3-c3ccccc32)cc1-c1ccccc1 [Example 5]
Result string: 1.633

---

- measurement_protocol: Solubility test of (meth)acrylate compound
- Assay type: physicochemical
- conditions_used: 30 parts by weight acrylate + 70 parts propylene glycol monomethyl ether acetate
reported_endpoint: Solubility (30 mass % concentration) Solvent PGMEA

compound: C=CC(=O)Oc1c(Cc2ccccc2)cc(C2(c3cc(Cc4ccccc4)c(OC(=O)C=C)c(-c4ccccc4)c3)c3ccccc3-c3ccccc32)cc1-c1ccccc1
result: ∘

compound: C=CC(=O)Oc1ccc2ccccc2c1-c1c(OC(=O)C=C)ccc2ccccc12 [Reference Example 2]
result: x

compound: C=CC(=O)Oc1ccc(C2(c3ccc(OC(=O)C=C)c(C)c3)c3ccccc3-c3ccccc32)cc1C
result: x

compound: C=CC(=O)Oc1ccc(C2(c3ccc(OC(=O)C=C)c(-c4ccccc4)c3)c3ccccc3-c3ccccc32)cc1-c1ccccc1
result: x

Now examine the next entry.
Query string: Tell me its Solubility (30 mass % concentration) Solvent PGMEA given C=CC(=O)OCCOc1ccc(C2(c3ccc(OCCOC(=O)C=C)c(C)c3)c3ccccc3-c3ccccc32)cc1C as the entry.
Result string: ∘
